Test system: MS2 coat protein
Assay: apparent KD of MS2 coat protein; higher = weaker reporter binding
Settings: Eterna round: R107; input ligand: none
A collection of sequences and their measured apparent KD of MS2 coat protein

- Seq text: "CCGUCACAUGAGGAUCACCCAUGUGCGGAAGGAGCGGACGAUAGUCCAGGUAGGUCGCCGUAUAGCCAAUGACCAGCAGUGUCGG [XARG-A 22]"
  apparent KD of MS2 coat protein: "0.0139 µM"
- Seq text: "AUUAUAGUUUAUAAGGAAAUUGAAACAGAAGGAGCGUGAGUAAUCACAGGUAGGUCGCUGGUAGUACAUGAGGAUCACCCAUGUU [JR_Nu_SSArginiA_Sub019]"
  apparent KD of MS2 coat protein: "0.0241 µM"
- Seq text: "AAAACAAUCUGAAGGAGCGUCACAUGAGGAUCACCCAUGUACAUGAGGAUCACCCAUGUGUGACAGGUAGGUCGCAGAAAAUACC [Exclusion Arginine B GF 3]"
  apparent KD of MS2 coat protein: "0.216 µM"

----------
Quick list: apparent KD of K4 kissing-loop reporter per entry.
Tested on: K4 kissing-loop RNA reporter;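 note: bound reporter read as fluorescence of individual clusters on recovered sequencing chips by microscopy, with normalized cluster intensities fitted with a binding model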
Test: apparent KD of K4 kissing-loop reporter; higher = weaker reporter binding
Details: Eterna round: R107; input ligand: arginine 13.2 mM

- Seq text: "CAGGCGACUAUCGAUACCAGAUGAUAUCGACUACUUGAGUGAUGUUCGAUUAAAGGCAUUAUCCCUUGGCAGCGACUGGACACAU [theeternabot_sameState_KL_Theo_B_24]"
  System: "K4 kissing-loop RNA reporter"
  apparent KD of K4 kissing-loop reporter [nM]: 505
- Seq text: "UACAUUUUAUUAACACUAAAUACAACUGAAGGAGCGACAAUAAAGUCAGGUAGGUCGCAGAAUAAAUGAGUGAUGUUCAUUAUUG [JR_ExcArginiA_Sub016]"
  System: "K4 kissing-loop RNA reporter"
  apparent KD of K4 kissing-loop reporter [nM]: 101
- Seq text: "GCUAUGGUAGGAAGGAGCGCUGCCUUGUUUUUACGAGUGAUGUUCGGAAGCAGGGUGUUAAAGCAGGUAGGUCGCCUACUAUAGC [Arginine B K4 23]"
  System: "K4 kissing-loop RNA reporter"
  apparent KD of K4 kissing-loop reporter [nM]: 121
- Seq text: "AACAACUUGUUUGUCGGGUGUUCGCGCGAUACCAGCCGAAUGGAUGGCCCUUGGCAGCGCAGCGAGUGAUGUUCGCCCGCUUGAC [Exclusion Theophylline A GF 24]"
  System: "K4 kissing-loop RNA reporter"
  apparent KD of K4 kissing-loop reporter [nM]: 422
- Seq text: "GCCGUAGAUUGAAGGAGCGCUAGUCUACGAUGACACACAGUGAUGUUGUGCGUGAUUUCAUAGCAGGUAGGUCGCAAUCUACGGC"
  System: "K4 kissing-loop RNA reporter"
  apparent KD of K4 kissing-loop reporter [nM]: 195
- Seq text: "AAGCCAGAGAUUGCUGCGGGUUCCAGAGAUACCAGCCGUAUUGAAGGCCCUUGGCAGCUCGAGUGAUGUUCGAGCCGUCUCUAGC [Bisore]"
  System: "K4 kissing-loop RNA reporter"
  apparent KD of K4 kissing-loop reporter [nM]: 101
- Seq text: "AUCCAUAGUGAUGUUGUGAGCGGAGGCACCAAGGAUAUUGCCAGCCCAAGAAGGUGGGUCCCACACACCAGGCAUACAAGUCCGG [theeternabot_exclusion_KL_FMN_A_43]"
  System: "K4 kissing-loop RNA reporter"
  apparent KD of K4 kissing-loop reporter [nM]: 845
- Seq text: "AGUGCACUGUCAGGAUAUAUACAGUGAUGUUGUGUAUGUCAGCAAGUCAAAGACUUGCUUUUCUGUGUAGAAGGGACUGUGUACA [Omei KL FMN B Exc A v2]"
  System: "K4 kissing-loop RNA reporter"
  apparent KD of K4 kissing-loop reporter [nM]: 134
- Seq text: "AAGUGAUGUUGUAGUGAUGUUGUGAUGUUGCAGGAUAUAUAGUGAUGUAGAAGGGUAUGUGCAGUUUUUUUUUUUGAGUGUUGAU [dpdmullin]"
  System: "K4 kissing-loop RNA reporter"
  apparent KD of K4 kissing-loop reporter [nM]: 34.2
- Seq text: "AAAAUUAACAAGAGUGAUGUUCUUGUUAGACAGGAUAUCGGUUUAACGAGAAGGGUCGUGGCUCCAUUGGGCCCAGUGGUUCACC [Mazareri]"
  System: "K4 kissing-loop RNA reporter"
  apparent KD of K4 kissing-loop reporter [nM]: 478
- Seq text: "UGUAAUGGCUGAGCAGCCGUGGUACGAGAUACCAGUGAUUUCGAUCACCCUUGGCAGCUCGGCGUGAGUGAUGUUCACGCUACAC [Theo A SS t12]"
  System: "K4 kissing-loop RNA reporter"
  apparent KD of K4 kissing-loop reporter [nM]: 199
- Seq text: "UGAGGAGAGGGAAGGAGCGUGAAAGAGAAAGAAUAUAGUGAUGUUAUAUAGAAGAAAGAAUCACAGGUAGGUCGCCCGGAGGAGG [SSArgB.B]"
  System: "K4 kissing-loop RNA reporter"
  apparent KD of K4 kissing-loop reporter [nM]: 742
